biological target: human vasopressin V1b receptor (Homo sapiens, UniProt P47901)
Sequence (P47901 whole entry): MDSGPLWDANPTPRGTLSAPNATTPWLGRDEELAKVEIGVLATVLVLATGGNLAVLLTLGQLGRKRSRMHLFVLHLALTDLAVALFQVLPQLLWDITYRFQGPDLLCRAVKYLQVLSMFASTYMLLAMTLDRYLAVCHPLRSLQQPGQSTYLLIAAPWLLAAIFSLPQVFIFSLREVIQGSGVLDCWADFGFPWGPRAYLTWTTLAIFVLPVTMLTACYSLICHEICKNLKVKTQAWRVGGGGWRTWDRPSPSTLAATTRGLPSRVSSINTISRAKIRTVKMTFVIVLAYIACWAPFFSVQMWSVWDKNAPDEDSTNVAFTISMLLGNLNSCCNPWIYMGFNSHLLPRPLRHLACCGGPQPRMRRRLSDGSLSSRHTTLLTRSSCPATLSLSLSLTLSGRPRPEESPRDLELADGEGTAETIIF
Structures can show the parent of a compound that is named as a salt.
assayReadout: Ki

Requested read-out: Ki. Entry: COc1cc(CN(C)C)ccc1C1(N2CCC[C@H]2C(=O)N(C)C)C(=O)N(S(=O)(=O)c2ccc(F)cc2)c2ccc(Cl)cc21 (some centres unmarked) [Example 73, trifluoroacetic acid salt]
1 to 10 nM

Requested read-out: Ki. Entry: COc1ccc(S(=O)(=O)N2C(=O)C(c3cc(CN(C)CCN(C)C)ccc3OC)(N3CCC[C@H]3C(=O)N(C)C)c3cc(Cl)ccc32)cc1 (some centres unmarked) [Example 22, trifluoroacetic acid salt]
< 1 nM

Requested read-out: Ki. Entry: COc1ccc(S(=O)(=O)N2C(=O)C(c3cccc(CN(C)C)c3)(N3C[C@H](O)C[C@H]3C(=O)N(C)C)c3cc(Cl)ccc32)c(OC)c1 (single isomer, unassigned)
1 to 10 nM

Requested read-out: Ki. Entry: COc1ccc(CNC(C)C)cc1C1(N2CCC[C@H]2C(=O)N(C)C)C(=O)N(S(=O)(=O)c2ccc(C#N)cc2)c2ccc(Cl)cc21 (some centres unmarked) [Example 101, trifluoroacetic acid salt]
< 1 nM

Requested read-out: Ki. Entry: COCCN(C)Cc1ccc(C2(N3CCC[C@H]3C(=O)N(C)C)C(=O)N(S(=O)(=O)c3ccc(OC)cc3)c3ccc(Cl)cc32)c(OC)c1 (some centres unmarked) [Example 89, trifluoroacetic acid salt]
< 1 nM

Requested read-out: Ki. Entry: COc1ccc(S(=O)(=O)N2C(=O)C(c3ccc(CN4CCCCC4)cc3OC)(N3CCC[C@H]3C(=O)N(C)C)c3cc(Cl)ccc32)cc1 (some centres unmarked) [Example 83, trifluoroacetic acid salt]
< 1 nM

Requested read-out: Ki. Entry: COc1ccc(S(=O)(=O)N2C(=O)C(c3ccc(CN4CCOCC4)cc3OC)(N3CCC[C@H]3C(=O)N(C)C)c3cc(Cl)ccc32)cc1 (some centres unmarked) [Example 71, trifluoroacetic acid salt]
< 1 nM

Requested read-out: Ki. Entry: COc1cc(CN(C)C)ccc1C1(N2CCC[C@H]2C(=O)N(C)C)C(=O)N(S(=O)(=O)c2ccc(C#N)cc2)c2ccc(Cl)cc21 (some centres unmarked) [Example 72, trifluoroacetic acid salt]
1 to 10 nM

Requested read-out: Ki. Entry: COc1ccc(S(=O)(=O)N2C(=O)C(c3ccc(CN4CCCC4)cc3OC)(N3CCC[C@H]3C(=O)N(C)C)c3cc(Cl)ccc32)c(OC)c1 (some centres unmarked) [Example 1, trifluoroacetic acid salt]
< 1 nM

Requested read-out: Ki. Entry: COc1ccc(S(=O)(=O)N2C(=O)C(c3ccc(CN(C)CCN(C)C)cc3OC)(N3CCC[C@H]3C(=O)N(C)C)c3cc(Cl)ccc32)c(OC)c1 (some centres unmarked)
1 to 10 nM

Requested read-out: Ki. Entry: COc1cc(CN2CCOCC2)ccc1C1(N2CCC[C@H]2C(=O)N(C)C)C(=O)N(S(=O)(=O)c2ccc(F)cc2)c2ccc(Cl)cc21 (some centres unmarked) [Example 77, trifluoroacetic acid salt]
10 to 100 nM

Requested read-out: Ki. Entry: COc1ccc(S(=O)(=O)N2C(=O)C(c3cc(CN(C)C)ccc3OC)(N3CCC[C@H]3C(=O)N(C)C)c3cc(Cl)ccc32)cc1 (some centres unmarked) [Example 17, trifluoroacetic acid salt]
< 1 nM

Requested read-out: Ki. Entry: COc1cc(CN2CCCC2)ccc1C1(N2CCC[C@H]2C(=O)N(C)C)C(=O)N(S(=O)(=O)c2ccc(Cl)cc2)c2ccc(Cl)cc21 (some centres unmarked) [Example 4, trifluoroacetic acid salt]
< 1 nM

Requested read-out: Ki. Entry: COc1ccc(S(=O)(=O)N2C(=O)C(c3ccc(CN(C)C(C)C)cc3OC)(N3CCC[C@H]3C(=O)N(C)C)c3cc(Cl)ccc32)cc1 (some centres unmarked) [Example 88, trifluoroacetic acid salt]
< 1 nM

Requested read-out: Ki. Entry: COc1cc(CN2CCNCC2)ccc1C1(N2CCC[C@H]2C(=O)N(C)C)C(=O)N(S(=O)(=O)c2ccc(C#N)cc2)c2ccc(Cl)cc21 (some centres unmarked) [Example 82, trifluoroacetic acid salt]
< 1 nM

Requested read-out: Ki. Entry: COc1cc(CN2CCCC2)ccc1C1(N2CCC[C@H]2C(=O)N(C)C)C(=O)N(S(=O)(=O)c2ccc(C#N)cc2)c2ccc(Cl)cc21 (some centres unmarked) [Example 5, trifluoroacetic acid salt]
< 1 nM

Requested read-out: Ki. Entry: COCCN(C)Cc1ccc(OC)c(C2(N3CCC[C@H]3C(=O)N(C)C)C(=O)N(S(=O)(=O)c3ccc(OC)cc3)c3ccc(Cl)cc32)c1 (some centres unmarked) [Example 32, trifluoroacetic acid salt]
< 1 nM

Requested read-out: Ki. Entry: CCN(C)Cc1ccc(C2(N3CCC[C@H]3C(=O)N(C)C)C(=O)N(S(=O)(=O)c3ccc(OC)cc3)c3ccc(Cl)cc32)c(OC)c1 (some centres unmarked) [Example 84, trifluoroacetic acid salt]
< 1 nM

Requested read-out: Ki. Entry: CCNCc1ccc(C2(N3CCC[C@H]3C(=O)N(C)C)C(=O)N(S(=O)(=O)c3ccc(OC)cc3)c3ccc(Cl)cc32)c(OC)c1 (some centres unmarked) [Example 93, trifluoroacetic acid salt]
< 1 nM

Requested read-out: Ki. Entry: COc1ccc(S(=O)(=O)N2C(=O)C(c3cc(CN(C)CCCN(C)C)ccc3OC)(N3CCC[C@H]3C(=O)N(C)C)c3cc(Cl)ccc32)cc1 (some centres unmarked) [Example 23, trifluoroacetic acid salt]
< 1 nM
